Origin of measurements: patent US20230102344A1

Target: T1, Human NKp30 (BKM0179) (human, UniProt O14931 19-135, limits assumed)
T1 sequence (looked up): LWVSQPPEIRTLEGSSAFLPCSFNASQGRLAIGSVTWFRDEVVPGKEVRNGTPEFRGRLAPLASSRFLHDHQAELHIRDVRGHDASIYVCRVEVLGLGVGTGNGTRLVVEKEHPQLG
Test: SPR (Biacore T200): human NKp30 BKM0179 captured via anti-mouse Fc on CM5, antibody as analyte, 1:1 fit
measurement label: Kd (nM)
Write the answer as a number in nM, unit excluded.

| binder | readout value |
| --- | --- |
| BKM0143 (scFv, also called BJM0407 VH-N60A) scFv: EIQLLESGGGLVQPGGSLRLSCAVSGFSITTTGYHWNWVRQAPGKGLEWVGYIYSSGSTSYAPSLKSRFTISRDTSKNTFYLQMNSLRAEDTAVYYCARGDWHYFDYWGQGTMVTVSSGGGGSGGGGSGGGGSGGGGSSSETTQPPSVSVSPGQTASITCSGEKLSDKYVHWYQQKPGQSPVMVIYENDRRPSGIPERFSGSNSGNTATLTISGTQAMDEADYFCQFWDSTNSAVFGGGTQLTVL | 1.45 |

Now for the binder whose Kd we want.
So, BJM1078 (antibody, V domains shown, only 'BJM0407 Parental'; also called BJM0407 Parental) VH: EIQLLESGGGLVQPGGSLRLSCAVSGFSITTTGYHWNWVRQAPGKGLEWVGYIYSSGSTSYNPSLKSRFTISRDTSKNTFYLQMNSLRAEDTAVYYCARGDWHYFDYWGQGTMVTVSS VL: SSETTQPPSVSVSPGQTASITCSGEKLSDKYVHWYQQKPGQSPVMVIYENDRRPSGIPERFSGSNSGNTATLTISGTQAMDEADYFCQFWDSTNSAVFGGGTQLTVL ? Its Kd was 1.48
